test system: COLO 205 colon; experiment: NCI tumour cell line growth inhibition, 48 h
# TGI listing for each entry below
Provide only the numeric value, understood in µM.

[[record]]
compound = "Cc1cc(N[C@@H]2CCC[C@H](Nc3ccnc4cc(Cl)ccc34)C2)nc(N2CCCCCC2)n1"
study_target = "COLO 205 colon"
experimental_readout = "TGI"
data_value = 2.89

[[record]]
compound = "Cc1nn(-c2ccccc2)c2c1C(c1cc3ccccc3nc1Cl)NC(=O)N2 (configuration not stated)"
study_target = "COLO 205 colon"
experimental_readout = "TGI"
data_value = 41.1

[[record]]
compound = "NC(N)=N/N=C/c1c(Cl)cccc1Cl"
study_target = "COLO 205 colon"
experimental_readout = "TGI"
data_value = 32.1

[[record]]
compound = "COc1ccc(-c2nnc3n(C)c(=O)c4ccccc4n23)cc1N"
study_target = "COLO 205 colon"
experimental_readout = "TGI"
data_value = 4.44

[[record]]
compound = "C=C1C(=O)CC2C1CC(=O)/C(C)=C/CCC(C)(O)C2O (configuration not stated)"
study_target = "COLO 205 colon"
experimental_readout = "TGI"
data_value = 7.49

[[record]]
compound = "CCC(C)(C)c1ccc(OCCCCNC(=O)c2ccc3ccccc3c2O)c(C(C)(C)CC)c1"
study_target = "COLO 205 colon"
experimental_readout = "TGI"
data_value = 34.2


Incoming: Entry under review: C=CCc1cc(-c2nc(=S)[nH][nH]2)ccc1N=NNc1ccc(C(=O)O)cc1 . Reported TGI?
Outgoing: 58

Incoming: Now the compound O=c1c(F)cn(Cc2ccc(C34CC5CC(CC(C5)C3)C4)c(O)c2)c(=O)n1Cc1ccc(C23CC4CC(CC(C4)C2)C3)c(O)c1
Outgoing: 37.5

Incoming: Now the compound CCN1CN(c2ccccc2)C2(CCN(CC3COc4ccccc4O3)CC2)C1=O (configuration not stated)
Outgoing: 31.5

Incoming: Now the compound CCOC(=O)c1nc2c(OC)nn(O)cc-2c1[N+](=O)[O-]
Outgoing: 61.9
